target: MINPP1 (Homo sapiens, UniProt Q9UNW1); construct: recombinant, expressed in and purified from E. coli; borders and tags only in the supplement; experiment: 2D NMR of dephosphorylation of [[…]6]InsP5[2OH]; conditions: read-out: apparent IC50
Sequence (Q9UNW1 31-487): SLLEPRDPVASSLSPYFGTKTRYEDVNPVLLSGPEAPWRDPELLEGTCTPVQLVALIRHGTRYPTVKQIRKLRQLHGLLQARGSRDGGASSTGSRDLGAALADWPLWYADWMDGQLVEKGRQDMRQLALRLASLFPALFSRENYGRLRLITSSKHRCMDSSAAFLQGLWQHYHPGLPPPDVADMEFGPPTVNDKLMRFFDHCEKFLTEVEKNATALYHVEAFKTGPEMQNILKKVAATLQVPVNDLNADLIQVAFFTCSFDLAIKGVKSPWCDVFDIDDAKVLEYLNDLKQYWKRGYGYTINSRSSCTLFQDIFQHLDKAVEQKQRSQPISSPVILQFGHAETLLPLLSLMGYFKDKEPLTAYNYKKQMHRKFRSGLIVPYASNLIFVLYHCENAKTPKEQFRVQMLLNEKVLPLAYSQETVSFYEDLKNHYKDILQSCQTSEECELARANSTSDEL
MEASURE_NAME: IC50
Answer as a quantity: numeral, then unit.

Quick note, IC50 for O=P(O)(O)O[C@H]1[C@H](OP(=O)(O)O)[C@@H](OP(=O)(O)O)[C@H](OP(=O)(O)O)[C@@H](OP(=O)(O)O)[C@H]1OP(=O)(O)O [InsP6] landed at 2000 nM
